- Measurement Description: organ distribution of DXR after administration free or in liposomes
- Assay type: in vivo
- Conditions: skeletal muscle; 24 hrs; read-out: DXR level in Skeletal Muscle
Experimental Readout: concentration at 24 h (ng/g)

>>> print(df.to_string())
                         chemical_structure   experimental_readout  observed_value
0  COc1cccc2c1C(=O)c1c(O)c3c(c(O)c1C2=O)C[C@@](O)(C(=O)CO)C[C@@H]3O[C@H]1C[C@H](N)[C@H](O)[C@H](C)O1  concentration at 24 h             590

* * *

- Measurement Description: organ distribution of DXR after administration free or in liposomes
- Type: in vivo
- Conditions: intestine; 24 hrs; read-out: DXR level in Intestine
Experimental Readout: concentration at 24 h (ng/g)

>>> print(df.to_string())
                         chemical_structure   experimental_readout  observed_value
0  COc1cccc2c1C(=O)c1c(O)c3c(c(O)c1C2=O)C[C@@](O)(C(=O)CO)C[C@@H]3O[C@H]1C[C@H](N)[C@H](O)[C@H](C)O1  concentration at 24 h            1900

* * *

- Measurement Description: organ distribution of DXR after administration free or in liposomes
- Format: in vivo
- Conditions: intestine; 5 hrs; read-out: DXR level in Intestine
Experimental Readout: concentration at 5 h (ng/g)

                         chemical_structure  observed_value
0  COc1cccc2c1C(=O)c1c(O)c3c(c(O)c1C2=O)C[C@@](O)(C(=O)CO)C[C@@H]3O[C@H]1C[C@H](N)[C@H](O)[C@H](C)O1            3100

* * *

- Measurement Description: repeated administration of graded doses of F-DXR and L-DXR
- Format: in vivo, mice
- Conditions: mouse, in vivo, iv, 10 mg/kg, female, day 84, 10 mg/kg; read-out: % Surviving
Experimental Readout: survival at 2016 h (%)

>>> print(df.to_string())
                         chemical_structure  experimental_readout  observed_value
0  COc1cccc2c1C(=O)c1c(O)c3c(c(O)c1C2=O)C[C@@](O)(C(=O)CO)C[C@@H]3O[C@H]1C[C@H](N)[C@H](O)[C@H](C)O1    survival at 2016 h              27

* * *

- Measurement Description: repeated administration of graded doses of F-DXR and L-DXR
- Assay type: in vivo, mice
- Conditions: mouse, in vivo, iv, 10 mg/kg, female, day 42, 10 mg/kg; read-out: % Surviving
- Protocol: L-DXR was prepared as in Example I, to final DXR concentrations of 0.5, 0.75, and 1.0 mg/ml, corresponding to phospholipid concentrations of 8, 12, and 16 μmole/ml, respectively, and cholesterol concentrations of 3.2, 4.8, and 6.4 μmole/ml, respectively. Free DXR (F-DXR) was prepared in sterile, pyrogen-free physiologic saline solution to final concentrations of 0.5, 0.75, and 1 mg/ml. […] During the course of the experiment, mice were inspected daily and survival curves were recorded. […]
Experimental Readout: survival at 1008 h (%)

In [3]: df
Out[3]:
                         chemical_structure  units  observed_value
0  COc1cccc2c1C(=O)c1c(O)c3c(c(O)c1C2=O)C[C@@](O)(C(=O)CO)C[C@@H]3O[C@H]1C[C@H](N)[C@H](O)[C@H](C)O1      %              93

* * *

- Measurement Description: organ distribution of DXR after administration free or in liposomes
- Type: in vivo
- Conditions: liver; 1 hr; read-out: DXR level in Liver
Experimental Readout: concentration at 1 h (ng/g)

>>> print(df.to_string())
                                   compound  observed_value
0  COc1cccc2c1C(=O)c1c(O)c3c(c(O)c1C2=O)C[C@@](O)(C(=O)CO)C[C@@H]3O[C@H]1C[C@H](N)[C@H](O)[C@H](C)O1 [DXR, doxorubicin]           30500

* * *

- Measurement Description: organ distribution of DXR after administration free or in liposomes
- Assay type: in vivo
- Conditions: lungs; 5 hrs; read-out: DXR level in Lungs
Experimental Readout: concentration at 5 h

>>> print(df.to_string())
                         chemical_structure  experimental_readout  observed_value
0  COc1cccc2c1C(=O)c1c(O)c3c(c(O)c1C2=O)C[C@@](O)(C(=O)CO)C[C@@H]3O[C@H]1C[C@H](N)[C@H](O)[C@H](C)O1  concentration at 5 h       8600 ng/g

* * *

- Measurement Description: single injection survival with graded doses of F-DXR and L-DXR
- Set-up: species or system mice
- Conditions: mouse, in vivo, iv; 10 mg/kg i.v., 90 days
Experimental Readout: mortality at 2160 h (%)

>>> print(df.to_string())
                         chemical_structure  experimental_readout  observed_value
0  COc1cccc2c1C(=O)c1c(O)c3c(c(O)c1C2=O)C[C@@](O)(C(=O)CO)C[C@@H]3O[C@H]1C[C@H](N)[C@H](O)[C@H](C)O1   mortality at 2160 h              20

* * *

- Measurement Description: organ distribution of DXR after administration free or in liposomes
- Type: in vivo
- Conditions: kidney; 5 hrs; read-out: DXR level in Kidney
Experimental Readout: concentration at 5 h (ng/g)

                         chemical_structure  observed_value
0  COc1cccc2c1C(=O)c1c(O)c3c(c(O)c1C2=O)C[C@@](O)(C(=O)CO)C[C@@H]3O[C@H]1C[C@H](N)[C@H](O)[C@H](C)O1           19400

* * *

- Measurement Description: single injection survival with graded doses of F-DXR and L-DXR
- Set-up: species or system mice
- Conditions: mouse, in vivo, iv; 20 mg/kg i.v., 90 days
- Description: L-DXR was prepared as in Example I, to final DXR concentrations of 1, 1.5, 2, and 2.5 mg/ml, with corresponding phospholipid concentrations of 16, 24, 32, and 40 μmole/ml, respectively, and cholesterol concentrations of 6.4, 9.6, 12.8, and 16 μmole/ml, respectively. Free DXR (F-DXR) was prepared in sterile, pyrogen-free physiologic saline solution to final concentrations of 1, 1.5, 2, and 2.5 mg/ml. […]
Experimental Readout: mortality at 2160 h

                                   compound  observed_value
0  COc1cccc2c1C(=O)c1c(O)c3c(c(O)c1C2=O)C[C@@](O)(C(=O)CO)C[C@@H]3O[C@H]1C[C@H](N)[C@H](O)[C@H](C)O1 [DXR, doxorubicin]            100%

* * *

- Measurement Description: single injection survival with graded doses of F-DXR and L-DXR
- Parameters: species or system mice
- Conditions: mouse, in vivo, iv; 25 mg/kg i.v., 90 days
- Procedure: L-DXR was prepared as in Example I, to final DXR concentrations of 1, 1.5, 2, and 2.5 mg/ml, with corresponding phospholipid concentrations of 16, 24, 32, and 40 μmole/ml, respectively, and cholesterol concentrations of 6.4, 9.6, 12.8, and 16 μmole/ml, respectively. Free DXR (F-DXR) was prepared in sterile, pyrogen-free physiologic saline solution to final concentrations of 1, 1.5, 2, and 2.5 mg/ml. […]
Experimental Readout: mortality at 2160 h (%)

>>> df
                         chemical_structure  units  observed_value
0  COc1cccc2c1C(=O)c1c(O)c3c(c(O)c1C2=O)C[C@@](O)(C(=O)CO)C[C@@H]3O[C@H]1C[C@H](N)[C@H](O)[C@H](C)O1      %             100

* * *

- Measurement Description: organ distribution of DXR after administration free or in liposomes
- Assay type: in vivo
- Conditions: spleen; 1 hr; read-out: DXR level in Spleen
Experimental Readout: concentration at 1 h (ng/g)

In [3]: df
Out[3]:
                         chemical_structure  observed_value
0  COc1cccc2c1C(=O)c1c(O)c3c(c(O)c1C2=O)C[C@@](O)(C(=O)CO)C[C@@H]3O[C@H]1C[C@H](N)[C@H](O)[C@H](C)O1            8100
